Every entry's value here was drawn from PubChem BioAssay (NCI).

Test system: COLO 205 colon
Experimental protocol: NCI tumour cell line growth inhibition, 48 h
Quantity: GI50

The reported value for "O=C1C(Nc2ccc(Br)cc2)=C(I)C(=O)c2ncccc21" in terms of GI50 is 1190 nM

The reported value for "COc1cccc(-n2cc(-c3nc(Nc4cc(C)[nH]n4)c4ccccc4n3)nn2)c1" in terms of GI50 is 6800 nM

The reported value for CC1SC2(CCC(c3ccccc3)CC2)N(NC(=O)c2[nH]c3ccc(F)cc3c2-c2ccccc2)C1=O (stereo not drawn) in terms of GI50 is 2960 nM

###

For each record, write down the corresponding TGI.
Tested on: M14 melanoma
Experimental protocol: NCI tumour cell line growth inhibition, 48 h
Hi! Could you send only the number? It should be in µM, unit omitted.

The recorded TGI with M14 melanoma for "NCCCn1c2c(c3ccc([N+](=O)[O-])cc3c1=O)C(=O)c1cc(-c3ccccc3)ccc1-2" was 2.37

The recorded TGI with M14 melanoma for "CCN(Cc1ccccc1Cl)c1ccc(CO)c(Cl)c1" was 31.7

The recorded TGI with M14 melanoma for "C[n+]1c2ccccc2n2c3ccccc3c(NCCc3ccccn3)c(C#N)c21" was 6.56

The recorded TGI with M14 melanoma for CC1SC2(CCC(c3ccccc3)CC2)N(NC(=O)c2[nH]c3ccc(F)cc3c2-c2ccccc2)C1=O (stereo not given) was 21.9

###

For each record, write down the corresponding TGI.
Tested on: UACC-62 melanoma
Experimental protocol: NCI tumour cell line growth inhibition, 48 h

The reported value for "S=C(N/N=C/c1ccccn1)Nc1ccc(Cl)cc1" in terms of TGI is 1.51 µM

The reported value for NC1(C(=O)O)CCc2ccc(N(CCCl)CCCl)cc2C1 (stereo not given) in terms of TGI is > 100 µM

The reported value for "Cn1c(=O)c2ccc(-c3ccc(Br)cc3)nc2n(C)c1=O" in terms of TGI is > 100 µM

The reported value for "N#CCCN(CCC#N)c1ccc(C(N=Nc2ccccc2)=Nc2ccc(Cl)cc2)cc1" in terms of TGI is > 100 µM

The reported value for COC1=C(Br)C(O)C2(C=C1Br)CC(C(=O)NCCCCNC(=O)C1=NOC3(C=C(Br)C(OC)=C(Br)C3O)C1)=NO2 (stereo not given) in terms of TGI is > 100 µM

###

For each record, write down the corresponding TGI.
System: HT29 colon
Experimental protocol: NCI tumour cell line growth inhibition, 48 h

The recorded TGI with HT29 colon for Cc1cc(C)c2c(c1)C1=NCCN1C2(O)c1ccc(Cl)cc1 (stereo unspecified) was 31.5 µM

The recorded TGI with HT29 colon for O=C(O)C1CCC(=O)N1S(=O)(=O)c1ccccc1 (stereo unspecified) was > 100 µM

The recorded TGI with HT29 colon for "CCOC(=O)/C(N=Nc1ccc(-n2c(C)nc3ccc(Br)cc3c2=O)cc1)=C(/C)O" was > 100 µM

The recorded TGI with HT29 colon for OC(c1cc2ccccc2[nH]1)C1(c2cccnc2)SCCCS1 (stereo unspecified) was > 100 µM

The recorded TGI with HT29 colon for "Cn1cc(S(=O)(=O)NC(=O)Nc2ccc(Cl)cc2)c2ccccc21" was > 100 µM

The recorded TGI with HT29 colon for CC1(c2cccc(N)c2)C2C(=O)NC(=O)C1C(=O)NC2=O (stereo unspecified) was > 100 µM

The recorded TGI with HT29 colon for CCOC(=O)C1=C(C)N(Cc2ccccc2)C(=O)C1CC#N (stereo unspecified) was > 100 µM

The recorded TGI with HT29 colon for "CCCC[n+]1c(/C=C\c2c(OC)cc(OC)cc2OC)ccc2ccccc21" was 4.09 µM

The recorded TGI with HT29 colon for CN(C)CC1CCC/C(=C\c2ccc(OC(=O)/C=C/c3ccccc3)cc2)C1=O (stereo unspecified) was 3.75 µM

The recorded TGI with HT29 colon for CCOC(=O)C1=c2[nH]c3cccc4cccc(c43)n2C(=O)CC1c1ccccc1 (stereo unspecified) was > 100 µM

The recorded TGI with HT29 colon for "CC(=O)C=NCC(=O)O" was > 100 µM

###

Tested on: NCI-H226 lung
Experimental protocol: NCI tumour cell line growth inhibition, 48 h
For each record, write down the corresponding TGI.

The reported value for CC(=O)OC12c3ccccc3-c3ccccc3C1C(C(=O)O)C2(Cl)C(=O)O (configuration not stated) in terms of TGI is > 10 µM

The reported value for "Cc1c(/C=N/NC(=S)Nc2ccccc2)c(=O)n(-c2ccccc2)n1C" in terms of TGI is > 100 µM

The reported value for "CCCCCc1cc[n+](CC(=O)c2ccc([N+](=O)[O-])cc2)cc1" in terms of TGI is 24.4 µM

The reported value for COC1(OC)N=C(N)C2(C#N)C3(C(=O)N(C(C)C)N=C3C)C12C#N (configuration not stated) in terms of TGI is > 100 µM

The reported value for "COc1cccc(NC(=O)C(C)(C)C)c1SSc1c(NC(=O)C(C)(C)C)cccc1OC" in terms of TGI is > 93.6 µM

The reported value for "CN(C)c1ccc(-c2c(C#N)c(O)n(NS(=O)(=O)c3ccccc3)c(=O)c2C#N)cc1" in terms of TGI is > 100 µM

The reported value for "Cc1ccc(N=C2S/C(=C3/CCC=C3N3CCOCC3)N(c3ccc(Cl)cc3)C2=Nc2ccc(C)cc2)cc1" in terms of TGI is > 100 µM

The reported value for "COc1ccc(-c2nn(-c3cccc(NC(=O)Nc4ccccc4)c3)cc2-c2ccncc2)cc1Cl" in terms of TGI is 5.81 µM

The reported value for "COc1cc2oc(-c3ccc(O)cc3O)c(CC=C(C)C)c(=O)c2c(O)c1/C=C/C(C)C" in terms of TGI is 9.98 µM

The reported value for "CC(=O)c1ccc(Nc2nc(Nc3ccc(F)cc3)nc(Nc3ccc(F)cc3)n2)cc1" in terms of TGI is > 100 µM

The reported value for "Nc1ccccc1NC(=O)c1ccc(CN2CCC/C(=C\c3ccccn3)C2=O)cc1" in terms of TGI is 9.59 µM

The reported value for COC(=O)C(Cc1ccccc1)NP(=O)(O)OCC1OC(n2cc(I)c(=O)[nH]c2=O)CC1O (configuration not stated) in terms of TGI is > 100 µM

The reported value for "O=[N+]1ON=C(c2ccccc2)C1=C1C(c2c(-c3ccccc3)no[n+]2[O-])=NON1[O-]" in terms of TGI is 62.5 µM

The reported value for O=C1C(Cl)C2(CC(/C=C/c3ccccc3O)=NN2c2cccc(S(=O)(=O)O)c2)N1c1nc2ccccc2s1 (configuration not stated) in terms of TGI is 51.2 µM

The reported value for Cc1cc(=O)[nH]c2cc(NC(=O)C(CCCN=C(N)N)NC(=O)OCc3ccccc3)ccc12 (configuration not stated) in terms of TGI is > 100 µM

The reported value for "c1cc2nnc1SCCCSc1ccc(nn1)SCCCSc1ccc(nn1)SCCCS2" in terms of TGI is > 100 µM

The reported value for "CSCC[C@H](NC(=O)[C@H](CC(C)C)NC(=O)[C@@H](Cc1ccccc1)NC(=O)CNC(=O)[C@@H](NC(=O)[C@H](C)NC(=O)[C@H](Cc1c[nH]c2ccccc12)NC(=O)[C@H](CCC(N)=O)NC(=O)[C@H](N)CC(N)=O)C(C)C)C(N)=O" in terms of TGI is > 12.5 µM

###

For each record, write down the corresponding TGI.
System: MDA-MB-231 breast
Experimental protocol: NCI tumour cell line growth inhibition, 48 h

The reported value for CC1(C)CCCC(C)(C2CCC3(C)C2C(O)CC2C4(C)CCC(O)C(C)(C)C4C(O)CC23C)O1 (stereo unspecified) in terms of TGI is 34.8 µM

The reported value for "CCN1C(=O)/C(=C2\SC(c3ccccc3)(c3ccccc3)c3ccccc32)SC1=S" in terms of TGI is > 100 µM

The reported value for COc1cc2c(cc1OC)CN1CCCc3cc(OC)c(OC)cc3C1C2 (stereo unspecified) in terms of TGI is > 100 µM

The reported value for "COc1ccc(-c2nn(-c3cccc(NC(=O)Nc4ccccc4)c3)cc2-c2ccncc2)cc1Cl" in terms of TGI is 8.01 µM

The reported value for CCC(CCC(C)C1CCC2C3CC=C4CC(OC5OC(CO)C(O)C(O)C5O)CCC4(C)C3CCC12C)C(C)C (stereo unspecified) in terms of TGI is > 100 µM

The reported value for "COc1cccc(-n2cc(-c3nc(Nc4cc(C)[nH]n4)c4ccccc4n3)nn2)c1" in terms of TGI is 15.6 µM

The reported value for "COc1cc(/C=C/c2nc(N)nnc2C)cc(OC)c1OC" in terms of TGI is > 100 µM

The reported value for "CC(C)(C)OC(=O)NCCC(=O)NC1(c2cc3ccccc3s2)CCCCC1" in terms of TGI is 38.4 µM

The reported value for CC1SC2(CCC(c3ccccc3)CC2)N(NC(=O)c2[nH]c3ccc(F)cc3c2-c2ccccc2)C1=O (stereo unspecified) in terms of TGI is 44 µM

The reported value for "O=C(OC[C@H]1C[C@H]2C(=O)CCC[C@H]2O1)c1ccccc1" in terms of TGI is > 100 µM

The reported value for CCOC(=O)C1C(c2ccc(O)c(OC)c2)c2c([nH][nH]c2=O)CC1(C)O (stereo unspecified) in terms of TGI is > 100 µM

The reported value for "Nc1ccccc1NC(=O)c1ccc(CN2CCC/C(=C\c3ccccn3)C2=O)cc1" in terms of TGI is > 100 µM

The reported value for COC(=O)C(Cc1ccccc1)NP(=O)(O)OCC1OC(n2cc(I)c(=O)[nH]c2=O)CC1O (stereo unspecified) in terms of TGI is > 100 µM

The reported value for "Clc1ccc(CNc2nc(Cl)c3[nH]cnc3n2)cc1Cl" in terms of TGI is > 100 µM

The reported value for "O=c1oc2ccccc2c(O)c1/C=N/C(=S)NCc1ccccc1" in terms of TGI is > 100 µM

The reported value for CCOC(=O)NC(C(=O)OCC)(N1CCN(c2cc3c(cc2F)c(=O)c(C(=O)O)cn3CC)CC1)C(F)(F)F (stereo unspecified) in terms of TGI is > 100 µM

The reported value for "Cc1[nH]n(C(=N)N)c(=O)c1CCO" in terms of TGI is > 100 µM

The reported value for "CCCCc1ccc(-n2sc3ncc([N+](=O)[O-])cc3c2=O)cc1" in terms of TGI is 23.5 µM

The reported value for "COc1ccc(-c2nc(Nc3ccc(-c4nc5ccccc5[nH]4)cc3)nc(N3CCOCC3)n2)cc1" in terms of TGI is 4.76 µM

The reported value for COc1c2c(cc3c1OCO3)C13C=CC(OC)CC1N(CC3)C2 (stereo unspecified) in terms of TGI is > 100 µM

The reported value for "O=C1C(Nc2ccc(Br)cc2)=C(I)C(=O)c2ncccc21" in terms of TGI is 1.63 µM
